Reported pIC50 is given for each of the following compounds.
# Target Desc: hTRPV3 (Homo sapiens (Human), UniProt Q8NET8)
# Sequence (Q8NET8 whole entry): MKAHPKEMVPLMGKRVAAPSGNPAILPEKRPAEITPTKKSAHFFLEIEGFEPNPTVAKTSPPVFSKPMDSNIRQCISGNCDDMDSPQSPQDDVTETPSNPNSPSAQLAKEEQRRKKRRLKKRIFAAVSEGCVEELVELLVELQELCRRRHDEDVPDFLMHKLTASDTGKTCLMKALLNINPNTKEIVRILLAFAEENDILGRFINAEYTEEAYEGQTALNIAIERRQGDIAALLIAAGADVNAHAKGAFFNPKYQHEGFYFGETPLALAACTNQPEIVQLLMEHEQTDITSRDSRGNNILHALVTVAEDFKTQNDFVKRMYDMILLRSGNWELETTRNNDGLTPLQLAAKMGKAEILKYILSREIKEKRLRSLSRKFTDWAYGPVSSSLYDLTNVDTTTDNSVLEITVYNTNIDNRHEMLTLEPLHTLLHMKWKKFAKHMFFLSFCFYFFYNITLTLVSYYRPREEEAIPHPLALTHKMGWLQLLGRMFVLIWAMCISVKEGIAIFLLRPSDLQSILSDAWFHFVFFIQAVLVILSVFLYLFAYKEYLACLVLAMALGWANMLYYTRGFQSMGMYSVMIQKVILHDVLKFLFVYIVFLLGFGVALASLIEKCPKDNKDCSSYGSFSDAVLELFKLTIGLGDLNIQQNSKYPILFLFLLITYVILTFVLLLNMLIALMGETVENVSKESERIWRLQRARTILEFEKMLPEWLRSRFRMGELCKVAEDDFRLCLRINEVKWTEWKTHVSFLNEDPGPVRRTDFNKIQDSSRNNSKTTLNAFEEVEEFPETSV
# Experiment Summary: Whole-cell patch clamp, hTRPV3 Phase 1 / Phase 2 currents
# Format: cell-based
# Run Parameters: Phase 1 current, inward, whole-cell patch clamp; read-out: hTRPV3 Patch P1 Inwd
pIC50: −log10 of the molar value.

// worked examples, pIC50 included
OCc1nc(-c2ccccc2)ccc1N1CC[C@H](Oc2nc(C(F)(F)F)cs2)C1 = < 6.00
CNC(=O)c1ccccc1N1CC[C@@H](Oc2ccc(C(F)(F)F)cn2)C1 = < 6.00

Prompt: What value of pIC50 has been recorded for this entry: CCc1ccccc1Oc1ccc(N2CC[C@H](Oc3ncccc3F)C2)c(CO)c1
Completion: 7.00 to 8.00

Prompt: Any idea what pIC50 was measured for O=C1C(Oc2ccc3ccccc3n2)CCN1c1ccccc1 (centres unmarked) ?
Completion: < 6.00

Prompt: State the recorded pIC50 for this entry: CC(C)(C)OC(=O)NCc1ccc(-c2ccc(N3CC[C@H](Oc4ccc(C(F)(F)F)cn4)C3)c(CO)c2)cc1
Completion: < 6.00

Prompt: Please report the recorded pIC50 for O=C(c1cscn1)N1CCC(c2ccc(-c3ccccc3C3CC3)cc2CO)C1 (centres unmarked) .
Completion: 6.00 to 7.00

Prompt: pIC50 for OCc1cc(C(O)c2ccc(F)cc2)ccc1N1CC[C@H](Oc2ncccc2Cl)C1 (some centres unmarked) ?
Completion: 6.00 to 7.00

Prompt: So what does the record say about pIC50 for OCc1ccc(Oc2ccccc2Cl)cc1N1CC[C@H](Oc2ccc(C(F)(F)F)cn2)C1 ?
Completion: 6.00 to 7.00

Prompt: # query: pIC50 of entry O=C(c1ccncn1)N1CCC(c2ccc(-c3ccccc3C3CC3)cc2CO)C1 (centres unmarked)
Completion: 6.00 to 7.00

Prompt: Return reported pIC50; argument: Cc1ccccc1Oc1ccc(N2CC[C@H](Oc3ncccc3Cl)C2)c(CO)c1
Completion: 7.00 to 8.00

Prompt: Given CN(C(=O)c1ccc(N2CC[C@H](Oc3ncccc3Cl)C2)c(CCO)c1)c1ccccc1 , state its recorded pIC50.
Completion: < 6.00

Prompt: Please look up its pIC50: OCc1cc(Oc2ccccc2F)ccc1N1CC[C@H](Oc2ncccc2F)C1
Completion: 7.00 to 8.00

Prompt: Would you kindly share the measured pIC50 for FC(F)(F)c1ccc(O[C@H]2CCN(c3ccccc3OCc3ccccc3)C2)nc1 ?
Completion: < 6.00

Prompt: Recorded pIC50 of Cc1cccc(C(=O)c2ccc(N3CC[C@H](Oc4ncccc4Cl)C3)c(CO)c2)c1 , please.
Completion: 7.00 to 8.00

Prompt: Quick check: pIC50 of CC(O)c1cc(-c2ccccc2)ccc1N1CC[C@H](Oc2ccc(C(F)(F)F)cn2)C1 (some centres unmarked) ?
Completion: 7.00 to 8.00

Prompt: Which pIC50 value is on record for OCc1cc(Oc2cccc(Cl)c2)ccc1N1CC[C@H](Oc2ncccc2Cl)C1 ?
Completion: 7.00 to 8.00

Prompt: Could you tell me which pIC50 is on file for CCc1ccccc1-c1ccc(N2CC[C@H](Oc3ncccc3F)C2)c(CO)n1 ?
Completion: < 6.00
